Procedure text: viability rescue of complex I mutant cybrids, primary screen, cell-based, galactose medium, ATP luminescence (AID 1645843);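 also: positive z means more ATP and so rescue of galactose-driven cybrid death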
Setup conditions: complex I mutant cybrid cells, 72 h, stronger effect = higher value
Active and inactive are the calls of the source.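 The calls were made as follows: active = z-score of at least 1.8 in each of two replicates, scored against plate mean and spread of sample wells; inactive = the rest.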
Property label: z-score

{"columns": ["Compound", "Value measured"],
 "data": [
  ["CC(C)[C@H](CO)Nc1nc(Nc2ccc(C(=O)O)c(Cl)c2)c2ncn(C(C)C)c2n1", "0.185 (inactive)"],
  ["CC(C)(CO)[C@@H](O)C(=O)NCCC(=O)O", "-0.065 (inactive)"],
  ["O=c1[nH]c2ccccc2c2ccccc12", "0.885 (inactive)"]
]}

Per the records, this compound ( C[C@H]1O[C@@H](O[C@H]2[C@@H](O)C[C@H](O[C@H]3[C@@H](O)C[C@H](O[C@H]4CC[C@@]5(C)[C@H](CC[C@@H]6[C@@H]5C[C@@H](O)[C@]5(C)C(C7=CC(=O)OC7)CC[C@]65O)C4)O[C@@H]3C)O[C@@H]2C)C[C@H](O)[C@@H]1O (some centres undefined) ) has z-score equal to -0.815 (inactive)
